# Study system: GST-Ap-NF-kB RHD (Exaiptasia pallida (Aiptasia), UniProt A0A913YAJ5 2-422)
# Sequence: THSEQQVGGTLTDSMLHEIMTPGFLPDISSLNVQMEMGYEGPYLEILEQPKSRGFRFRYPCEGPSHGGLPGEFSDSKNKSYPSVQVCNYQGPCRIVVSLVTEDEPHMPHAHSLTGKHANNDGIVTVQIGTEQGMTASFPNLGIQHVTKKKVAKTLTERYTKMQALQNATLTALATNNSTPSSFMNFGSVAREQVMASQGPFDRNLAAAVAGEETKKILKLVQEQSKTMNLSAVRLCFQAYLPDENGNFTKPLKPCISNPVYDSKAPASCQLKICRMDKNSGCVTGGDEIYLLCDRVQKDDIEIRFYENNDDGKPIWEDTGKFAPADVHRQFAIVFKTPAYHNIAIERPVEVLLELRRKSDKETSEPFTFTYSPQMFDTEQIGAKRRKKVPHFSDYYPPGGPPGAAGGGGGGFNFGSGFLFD
# Run description: protein-binding microarray (PBM); PBM: ~300 nM protein, 6 mM HEPES pH 7.8, 80 mM KCl, 0.5 mM EDTA, 0.5 mM EGTA, 6% glycerol, 35 ng/ul poly-dIdC, 1% milk, 1 h, room temperature; high values mean tight binding
# Run parameters: dsDNA, one strand shown
Range-based classes on measured binding signal: category 1 (below 2 z-score), category 2 (2 z-score to below 6 z-score), category 3 (6 z-score or more)

The following sequences have reported results that may help.
# Monomer sequence, Class assignment
data = [
    ("CCGATTAACATCAAGGAAAACCCTGATGTTAATCGGGTCTTGATTCGCTTGACGCTGCTG", "category 2"),
    ("CCGATTAACATCAATCGGGAAATTGATGTTAATCGGGTCTTGATTCGCTTGACGCTGCTG", "category 1"),
    ("CCGATTAACATCAGGGGGAACAATGATGTTAATCGGGTCTTGATTCGCTTGACGCTGCTG", "category 2"),
    ("CCGATTAACATCAAAACTCCCCTTGATGTTAATCGGGTCTTGATTCGCTTGACGCTGCTG", "category 3"),
    ("CCGATTAACATCAGGGGGAGAGATGATGTTAATCGGGTCTTGATTCGCTTGACGCTGCTG", "category 2"),
]

Input line: Classify this sequence: `CCGATTAACATCAGGGGAATATATGATGTTAATCGGGTCTTGATTCGCTTGACGCTGCTG`
Output line: category 3

Input line: Pick a category. Item: `CCGATTAACATCACAAACGGGGCTGATGTTAATCGGGTCTTGATTCGCTTGACGCTGCTG`
Output line: category 1

Input line: In plain terms, what class is `CCGATTAACATCAAATAGGGAATTGATGTTAATCGGGTCTTGATTCGCTTGACGCTGCTG` ?
Output line: category 2

====

# Study system: GST-Nv-NF-kB (Cys allele) (Nematostella vectensis, UniProt E5G601 2-411)
# Sequence: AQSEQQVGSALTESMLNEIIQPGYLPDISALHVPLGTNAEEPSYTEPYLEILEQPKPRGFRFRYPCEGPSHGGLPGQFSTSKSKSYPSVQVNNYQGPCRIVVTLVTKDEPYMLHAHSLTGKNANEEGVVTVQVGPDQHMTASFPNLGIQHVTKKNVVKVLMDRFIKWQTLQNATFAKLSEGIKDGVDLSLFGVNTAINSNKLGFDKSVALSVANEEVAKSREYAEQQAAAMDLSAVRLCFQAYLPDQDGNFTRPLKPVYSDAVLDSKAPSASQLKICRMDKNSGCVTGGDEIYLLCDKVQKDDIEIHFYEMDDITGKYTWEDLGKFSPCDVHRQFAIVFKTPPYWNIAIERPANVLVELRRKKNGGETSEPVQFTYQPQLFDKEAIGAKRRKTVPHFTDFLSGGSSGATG
# Run description: protein-binding microarray (PBM); PBM: ~300 nM protein, 6 mM HEPES pH 7.8, 80 mM KCl, 0.5 mM EDTA, 0.5 mM EGTA, 6% glycerol, 35 ng/ul poly-dIdC, 1% milk, 1 h, room temperature; Ap Aiptasia and Nv Nematostella (sea anemones) / Co Capsaspora / Aq Amphimedon (sponge) / Dm Drosophila / Hu human; RHD is the Rel homology domain; high values mean tight binding
# Run parameters: dsDNA, one strand shown
Readout kind: binding signal (z-score)
Answers are plain numbers, in z-score.

Provide the reported binding signal of each entry below, same order.
1. CCGATTAACATCACGGAATCCCCTGATGTTAATCGGGTCTTGATTCGCTTGACGCTGCTG
2. CCGATTAACATCAAAAATTACCATGATGTTAATCGGGTCTTGATTCGCTTGACGCTGCTG

Output line:
1. 8.59
2. 1.73

// for each sequence below, give its binding signal
1. CCGATTAACATCACATATTCCCCTGATGTTAATCGGGTCTTGATTCGCTTGACGCTGCTG
2. CCGATTAACATCAAGATATTCCCTGATGTTAATCGGGTCTTGATTCGCTTGACGCTGCTG
3. CCGATTAACATCAGGGAATTAAATGATGTTAATCGGGTCTTGATTCGCTTGACGCTGCTG

Output line:
1: 8.81; 2: 4.57; 3: 4.46
